These measurements were taken from ChEMBL document CHEMBL3879915.

List of IC50 values.
biological target: PRMT5/MEP50 complex (Homo sapiens, UniProt O14744); assay: Inhibition of recombinant human fetal brain FLAG-tagged PRMT5/full length human testis 6His-tagged MEP50 expressed in baculovirus infected insect Sf9 cells using human histone H4 (1 to 15 residues) as substrate preincubated for 30 mins followed by [3H]-SAM addition
Sequence (O14744 whole entry, the tested form may be a part): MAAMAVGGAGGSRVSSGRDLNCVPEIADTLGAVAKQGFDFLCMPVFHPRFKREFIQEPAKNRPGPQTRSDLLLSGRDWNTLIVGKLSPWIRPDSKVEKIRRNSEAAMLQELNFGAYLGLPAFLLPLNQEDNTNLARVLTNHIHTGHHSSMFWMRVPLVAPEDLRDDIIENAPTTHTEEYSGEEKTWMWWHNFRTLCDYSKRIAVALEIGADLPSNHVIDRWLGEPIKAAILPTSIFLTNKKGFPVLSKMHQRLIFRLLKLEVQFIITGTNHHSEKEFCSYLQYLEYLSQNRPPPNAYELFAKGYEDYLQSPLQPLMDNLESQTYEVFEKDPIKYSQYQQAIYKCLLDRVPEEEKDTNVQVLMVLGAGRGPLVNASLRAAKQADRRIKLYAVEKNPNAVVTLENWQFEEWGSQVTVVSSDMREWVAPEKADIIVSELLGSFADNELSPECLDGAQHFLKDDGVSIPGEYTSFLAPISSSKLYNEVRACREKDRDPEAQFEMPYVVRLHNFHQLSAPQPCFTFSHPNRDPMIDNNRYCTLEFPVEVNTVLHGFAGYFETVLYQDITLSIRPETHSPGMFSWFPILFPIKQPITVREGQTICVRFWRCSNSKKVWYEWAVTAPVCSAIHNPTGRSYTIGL
Sequence (Q9BQA1 whole entry, further chain, the tested form may be a part): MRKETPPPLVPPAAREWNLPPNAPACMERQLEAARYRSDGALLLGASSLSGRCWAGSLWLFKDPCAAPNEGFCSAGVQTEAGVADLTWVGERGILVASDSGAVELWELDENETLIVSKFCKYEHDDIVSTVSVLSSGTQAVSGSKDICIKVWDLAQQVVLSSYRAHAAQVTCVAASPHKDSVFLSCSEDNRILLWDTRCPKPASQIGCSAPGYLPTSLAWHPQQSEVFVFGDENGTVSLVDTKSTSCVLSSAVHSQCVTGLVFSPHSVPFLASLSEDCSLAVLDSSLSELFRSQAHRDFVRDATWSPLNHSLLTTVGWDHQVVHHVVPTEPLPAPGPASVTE

Previously resolved entries follow.
{"compound": "CC(=O)N1CCN(S(=O)(=O)c2ccccc2OCC(=O)NCC(O)CN2CCc3ccccc3C2)CC1 (stereo unspecified)", "IC50": "101 to 1000 nM"}
{"compound": "CCn1ccnc1COCC(O)CN1CCc2ccccc2C1 (stereo unspecified)", "IC50": "> 40000 nM"}
{"compound": "OC(COc1cccc(-c2ccc3ncn(C4CCOCC4)c3c2)c1)CN1CCc2ccccc2C1 (stereo unspecified)", "IC50": "101 to 1000 nM"}

Would you kindly look at the next entry?
q: Could you please provide reported IC50 for O=C(Nc1cccc(OCC(O)CN2CCc3ccccc3C2)c1)c1cnco1 (stereo unspecified) ? Thanks!
a: 1000 to 10000 nM
